assay: Pharmacokinetics in the rat, solid form (powder in mini-capsules); assay type: in vivo; settings: male, SD, rat, in vivo, po, 100 mg/kg
measurementType: Tmax

{"columns": ["smilesRecord", "result"],
 "data": [
  ["O=c1c(-c2ccc(O)cc2)coc2cc(OCOP(=O)(O)O)cc(O)c12", "~10 min"]
]}

---

assay: Intestinal stability, mouse intestinal S9; format: in vitro ADME; settings: intestinal S9 fraction, pH 7.4
Listed compounds paired with reported half-life at 1 µM
measurementType: half-life at 1 µM (min)

{"columns": ["compound", "result"],
 "data": [
  ["O=c1c(-c2ccc(O)cc2)coc2cc(OCOP(=O)(O)O)cc(O)c12 [Compound 2]", 68.1],
  ["O=c1c(-c2ccc(OCOP(=O)(O)O)cc2)coc2cc(O)cc(O)c12 [Compound 1]", 29.7]
]}
